EXPERIMENTAL SYSTEM: CB1 receptor (Homo sapiens, UniProt P21554)
Construct: expressed in transfected cells
Sequence (P21554 whole entry): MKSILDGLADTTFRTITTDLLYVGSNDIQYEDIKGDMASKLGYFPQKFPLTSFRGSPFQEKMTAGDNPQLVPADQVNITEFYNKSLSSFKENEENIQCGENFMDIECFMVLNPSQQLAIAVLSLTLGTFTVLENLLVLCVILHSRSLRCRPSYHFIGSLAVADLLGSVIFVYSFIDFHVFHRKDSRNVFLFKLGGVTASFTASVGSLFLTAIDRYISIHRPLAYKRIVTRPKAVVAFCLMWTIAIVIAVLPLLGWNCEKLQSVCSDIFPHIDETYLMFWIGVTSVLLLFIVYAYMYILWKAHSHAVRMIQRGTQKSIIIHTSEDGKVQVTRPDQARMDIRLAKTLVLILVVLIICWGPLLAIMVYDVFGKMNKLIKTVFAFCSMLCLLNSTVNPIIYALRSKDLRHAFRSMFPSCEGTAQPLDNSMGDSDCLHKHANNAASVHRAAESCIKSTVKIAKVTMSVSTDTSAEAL
EXPERIMENT SUMMARY: Binding assay for CB1 agonists or inverse agonists (SK-N-MC membranes, [3H]-CP-55,940)
CONDITIONS USED: test concentration 0.2 μM (footnote 2); 0.2 µM

MOLECULE | CB1 receptor binding percent inhibition
O=C(N[C@@H](CO)c1ccccc1)c1n[nH]c2c1CCCCC2Cc1cccc(Cl)c1 (stereo in doubt) [Cpd 228] | ^(2)0%
C[C@H](NS(=O)(=O)/C=C/c1n[nH]c2c1CCCCC2Cc1cccc(F)c1)c1ccccc1 (single isomer, unassigned) [Cpd 233] | ^(2)0%
O=C(N[C@@H](CO)c1ccccc1)c1n[nH]c2c1CCCCC2Cc1cccc(Cl)c1 (stereo in doubt) [Cpd 229] | 73%
C[C@@H](NC(=O)c1nn(-c2ccc(Cl)cc2Cl)c2c1CCCC/C2=C\c1ccc(F)cc1)c1ccccn1 [Cpd 225] | 89%

###

EXPERIMENTAL SYSTEM: CB2 receptor (Homo sapiens)
Construct: expressed in transfected cells
EXPERIMENT SUMMARY: Binding assay for CB2 agonists or inverse agonists (SK-N-MC membranes, [3H]-CP-55,940)
CONDITIONS USED: read-out: CB2 receptor binding percent inhibition, test concentration 0.25 μM (footnote 8)
ENDPOINT: inhibition at 0.25 µM (%)
Numbers only, in %.

For orientation, consider the following solved cases.
MOLECULE | EXPERIMENTAL SYSTEM | RECORDED VALUE
CC(NC(=O)c1nn(-c2ccc(Cl)cc2Cl)c2c1CCCC/C2=C\c1ccc(Cl)cc1)c1ccc(Cl)cc1 (stereo not drawn) | CB2 receptor (Homo sapiens) | 0
NS(=O)(=O)c1ccc(CNC(=O)c2nn(-c3ccc(Cl)cc3Cl)c3c2CCCC/C3=C\c2ccc(Cl)cc2)cc1 | CB2 receptor (Homo sapiens) | 25
O=C(NN1CCCCC1)c1nn(Cc2ccccc2)c2c1CCCCC2c1ccccc1 (stereo not drawn) | CB2 receptor (Homo sapiens) | 27
C[C@@H](NC(=O)c1nn(-c2ccc(Cl)cc2Cl)c2c1CCCC/C2=C\c1ccc(Cl)cc1)c1ccccc1 | CB2 receptor (Homo sapiens) | 34

Quick batch: inhibition at 0.25 µM for everything below.
1. O=C(NS(=O)(=O)c1ccccc1)c1nn(-c2ccc(Cl)cc2Cl)c2c1CCCC/C2=C\c1ccc(Cl)cc1
2. C[C@@H](NC(=O)c1nn(-c2ccc(Cl)cc2Cl)c2c1CCCC/C2=C\c1ccc(Cl)cc1)C1CCCCC1
3. O=C(NN1CCCCC1)c1nn(-c2ccc(Cl)cc2Cl)c2c1CCCC/C2=C\c1ccc(Cl)cc1
4. CS(=O)(=O)n1nc(C(=O)NCc2ccccc2)c2c1C(Cc1ccc(F)cc1)CCCC2 (stereo not drawn)
5. O=C(NN1CCOCC1)c1nn(-c2ccc(Cl)cc2Cl)c2c1CCCC/C2=C\c1ccc(Cl)cc1

18
42
29
98
28

###

EXPERIMENTAL SYSTEM: CB1 receptor (Homo sapiens, UniProt P21554)
Construct: expressed in transfected cells
EXPERIMENT SUMMARY: Binding assay for CB1 agonists or inverse agonists (SK-N-MC membranes, [3H]-CP-55,940)
CONDITIONS USED: read-out: CB1 receptor binding percent inhibition, test concentration 0.2 μM (footnote 2)
ENDPOINT: inhibition at 0.2 µM (%)
One number for each entry, in %.

COMPOUND | VALUE UNITS | RECORDED VALUE
O=C(N[C@@H](CO)c1ccccc1)c1n[nH]c2c1CCCC/C2=C\c1ccc(Cl)cc1 | % | 87

Quick batch: inhibition at 0.2 µM for everything below.
1. C[C@@H](NC(=O)c1nn(-c2ccc(Cl)cc2Cl)c2c1CCCC/C2=C\c1ccc(F)cc1)c1ccccc1
2. O=C(N[C@@H](CO)c1ccccc1)c1nn(-c2nccc(C(F)(F)F)n2)c2c1CCCCC2Cc1cccc(Cl)c1 (some centres unmarked)
3. O=C(NN1CCOCC1)c1nn(-c2ccncc2)c2c1CCCC/C2=C\c1ccc(Cl)cc1
4. C[C@@H](NC(=O)c1nn(-c2ccc(F)cc2F)c2c1CCCCC2Cc1cccc(F)c1)c1ccccc1 (some centres unmarked)
5. O=C(N[C@@H](CO)c1ccccc1)c1n[nH]c2c1CCCCC2Cc1cccc(Cl)c1 (some centres unmarked)

[93, 4, 0, 32, 79]

Quick batch: inhibition at 0.2 µM for everything below.
1. COc1ccc(/C=C2\CCCCc3c(C(=O)N[C@H](C)C4CCCCC4)nn(-c4ccc(Cl)cc4Cl)c32)cc1
2. O=C(NCc1ccccn1)c1nn(-c2ccc(Cl)cc2Cl)c2c1CCCC/C2=C\c1ccc(Cl)cc1

95
72

###

EXPERIMENTAL SYSTEM: CB2 receptor (Homo sapiens, UniProt P34972)
Construct: expressed in transfected cells
Sequence (P34972 whole entry): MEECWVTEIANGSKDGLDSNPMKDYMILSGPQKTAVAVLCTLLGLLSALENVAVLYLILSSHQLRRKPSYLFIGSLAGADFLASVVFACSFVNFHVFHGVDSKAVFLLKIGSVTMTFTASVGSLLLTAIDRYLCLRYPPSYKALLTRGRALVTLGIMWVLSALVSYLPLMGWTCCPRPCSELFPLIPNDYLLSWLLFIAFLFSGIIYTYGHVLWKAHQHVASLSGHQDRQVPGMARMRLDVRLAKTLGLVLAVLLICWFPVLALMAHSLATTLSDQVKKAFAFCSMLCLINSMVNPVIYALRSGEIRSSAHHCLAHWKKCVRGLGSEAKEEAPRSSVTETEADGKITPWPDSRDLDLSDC
EXPERIMENT SUMMARY: Functional cell-based assay, CB2 receptor mediated change in CRE β-gal expression (SK-N-MC cells)
CONDITIONS USED: forskolin induced β-galactosidase activity, SK-N-MC cells; read-out: CB2 Receptor Functional Agonist EC50
ENDPOINT: pEC50
One number for each entry, as −log10 of the molar value.

Fill in the blank: the reported pEC50 of O=C(N[C@H](CCO)c1ccccc1)c1n[nH]c2c1CCCC/C2=C\c1cccc(Cl)c1 is ____.
6.89

###

EXPERIMENTAL SYSTEM: CB1 receptor (Homo sapiens, UniProt P21554)
Construct: expressed in transfected cells
EXPERIMENT SUMMARY: Binding assay for CB1 agonists or inverse agonists (SK-N-MC membranes, [3H]-CP-55,940)
CONDITIONS USED: read-out: CB1 receptor binding percent inhibition, test concentration 1 μM (footnote 1)
inhibition at 1 µM below 30% gives False; inhibition at 1 µM at or above it gives True.

Completed entries (count: 5):
COMPOUND | CATEGORY
O=C(NN1CCCCC1)c1nn(C2CCCCC2)c2c1CCCCC2Cc1cccc(F)c1 (centres unmarked) | True
COC(=O)[C@@H](Cc1ccc(O)cc1)NC(=O)c1nn(-c2ccc(F)cc2F)c2c1CCCCC2Cc1ccc(F)cc1 (some centres unmarked) | True
O=C(NN1CCCCC1)c1nn(C2CCCCC2)c2c1CCCCC2Cc1ccc(F)cc1 (centres unmarked) | False
O=C(c1nn(C2CCCCC2)c2c1CCCCC2Cc1ccc(F)cc1)N1CCN(c2ccccc2)CC1 (centres unmarked) | True
O=C(NC1C2CC3CC(C2)CC1C3)c1nn(-c2ccc(Cl)cc2Cl)c2c1CCCCC2Cc1cccc(Cl)c1 (centres unmarked) | True

Does the compound O=C(NC1CCCC1)c1nn(C2CCCCC2)c2c1CCCCC2Cc1ccc(F)cc1 (centres unmarked) have recorded inhibition at 1 µM that is 30% or more?
False

Does the compound CC12CCC(C1)C(C)(C)[C@H]2NC(=O)c1nn(-c2ccc(Cl)cc2Cl)c2c1CCCCC2Cc1ccc(Cl)cc1 (some centres unmarked) have recorded inhibition at 1 µM that is 30% or more?
False

Does the compound O=C(N[C@@H](CO)c1ccccc1)c1nn(C2CCCCC2)c2c1CCCC[C@@H]2Cc1ccc(F)cc1 have recorded inhibition at 1 µM that is 30% or more?
False

###

EXPERIMENTAL SYSTEM: CB2 receptor (Homo sapiens)
Construct: expressed in transfected cells
EXPERIMENT SUMMARY: Binding assay for CB2 agonists or inverse agonists (SK-N-MC membranes, [3H]-CP-55,940)
CONDITIONS USED: test concentration not stated
Could you please report measured CB2 receptor binding percent inhibition for the items listed next?
Field: value (include unit after the number)

For orientation, consider the following solved cases.
COMPOUND | ENDPOINT | RECORDED VALUE
CC12CCC(C1)C(C)(C)[C@H]2NC(=O)c1nn(C2CCCCC2)c2c1CCCCC2Cc1ccc(Cl)cc1 (some centres unmarked) | CB2 receptor binding percent inhibition | 53%
O=C(NC1CCC1)c1nn(-c2ccc(Cl)cc2Cl)c2c1CCCCC2Cc1cccc(Cl)c1 (centres unmarked) | CB2 receptor binding percent inhibition | 0%
O=C(c1nn(-c2ccc(F)cc2F)c2c1CCCCC2Cc1cccc(F)c1)N1CCOCC1 (centres unmarked) | CB2 receptor binding percent inhibition | 31%
C[C@H](NS(=O)(=O)/C=C/c1nn(C)c2c1CCCCC2Cc1cccc(F)c1)c1ccccc1 (some centres unmarked) | CB2 receptor binding percent inhibition | 93%
O=C(NC12CC3CC(CC(C3)C1)C2)c1nn(C2CCCCC2)c2c1CCCCC2Cc1cccc(Cl)c1 (centres unmarked) | CB2 receptor binding percent inhibition | 51%

Quick batch: CB2 receptor binding percent inhibition for everything below.
1. O=C(NC1C2CC3CC(C2)CC1C3)c1nn(C2CCCCC2)c2c1CCCCC2Cc1ccccc1Cl (centres unmarked)
2. CCOC(=O)[C@@H]1C2CCC(C2)[C@@H]1NC(=O)c1nn(C2CCCCC2)c2c1CCCCC2Cc1ccc(F)cc1 (some centres unmarked)
3. CC12CCC(C1)C(C)(C)[C@H]2NC(=O)c1nn(C2CCCCC2)c2c1CCCCC2Cc1ccccc1Cl (some centres unmarked)

["14%", "95%", "21%"]
